This collection of values is drawn from patent US20200181089A1.

Reported activity at 1 µM by item:
test system: A375 cells; test: A375 cell proliferation assay (trypan blue exclusion); format: cell-based; settings: Homo sapiens, A-375; A375, 1 μM, 96 h, treated/untreated cell number; read-out: Proliferation (%) At 1 μM - 96 H
Measurement Kind: activity at 1 µM

> print(dat)
                                    compound  assay.result
 1  COCCOc1cc(Nc2ccnc3cc(Cl)ccc23)ccc1OC [Compound 35]         85.3%
 2  FC(F)(F)Oc1ccc(Nc2ccnc3ccc(Cl)cc23)cc1 [Compound 36]         97.7%
 3  Oc1ccc(Nc2ccnc3cc(Cl)ccc23)cc1 [Compound 7]         91.1%
 4  COc1ccc(Nc2cc(N3CCOCC3)nc3cc(Cl)ccc23)cc1 [Compound 30]         73.2%
 5  COc1ccc(Nc2cc(OC)nc3cc(Cl)ccc23)cc1 [Compound 27]         85.6%
 6  COc1ccc(Nc2cc(N3CCN(C)CC3)nc3cc(Cl)ccc23)cc1OC [Compound 29]         87.6%
 7  FC(F)Oc1ccc(Nc2ccnc3cc(Cl)ccc23)cc1 [Compound 34]         98.6%
 8  COc1ccc(Nc2ccnc3cc(Cl)ccc23)cc1OC [Compound 38]         46.9%
 9  Oc1ccc(Nc2ccnc3cc(Cl)ccc23)cc1Cl [Compound 8]           74%
10  COc1ccc(Nc2cc(N3CCN(C)CC3)nc3cc(Cl)ccc23)cc1 [Compound 31]         83.3%

---

test system: normal human melanocyte; test: Melanocyte viability assay (trypan blue exclusion); assay type: cell-based; conditions: 96 h
Measurement Kind: Viability (%) at 10 μM Melanocyte

> print(dat)
                           molecular.string                   measurement.kind  unit.spec  assay.result
1          Oc1ccc(Nc2ccnc3cc(Cl)ccc23)cc1Cl  Viability (%) at 10 μM Melanocyte          %          98.0
2  COc1ccc(Nc2cc(N3CCOCC3)nc3cc(Cl)ccc23)cc1  Viability (%) at 10 μM Melanocyte          %          94.2
3   COc1cc(Nc2ccc(OC)c(OC)c2)c2ccc(Cl)cc2n1  Viability (%) at 10 μM Melanocyte          %          60.1
4  COc1ccc(Nc2cc(N3CCOCC3)nc3cc(Cl)ccc23)cc1OC  Viability (%) at 10 μM Melanocyte          %          99.1
5  COc1ccc(Nc2cc(N3CCN(C)CC3)nc3cc(Cl)ccc23)cc1  Viability (%) at 10 μM Melanocyte          %          33.1
6            Oc1ccc(Nc2ccnc3cc(Cl)ccc23)cc1  Viability (%) at 10 μM Melanocyte          %          99.1

---

Test system: normal human fibroblast
Assay: Fibroblast viability assay (trypan blue exclusion)
Type: cell-based
Conditions: 96 h
Description: Cell viability effects were evaluated by trypan blue exclusion assay. Briefly, cells were seeded into 12-well plate and grown in media supplemented with indicated compound at 10 μM for 96 h. Cells were washed with PBS and detached by trypsinization, collected and colored by trypan blue. Dead and living cells were counted and cell viability was calculated as follow: Viability (%)=100−[(dead cell number/total cells)*100].
Each entry below carries its reported Viability (%) at 10 μM Fibroblast.
Measurement Kind: Viability (%) at 10 μM Fibroblast

> print(dat)
                                    compound                   measurement.kind  assay.result
 1  COc1ccc(Nc2cc(N3CCN(C)CC3)nc3cc(Cl)ccc23)cc1OC [Compound 29]  Viability (%) at 10 μM Fibroblast         41.6%
 2  COc1ccc(Nc2cc(N3CCOCC3)nc3cc(Cl)ccc23)cc1OC [Compound 28]  Viability (%) at 10 μM Fibroblast         95.7%
 3  COc1cc(Nc2ccc(OC)c(OC)c2)c2ccc(Cl)cc2n1 [Compound 33]  Viability (%) at 10 μM Fibroblast         97.7%
 4  COc1ccc(Nc2cc(OCCN3CCOCC3)nc3cc(Cl)ccc23)cc1OC [Compound 32]  Viability (%) at 10 μM Fibroblast         99.4%
 5  FC(F)(F)Oc1ccc(Nc2ccnc3ccc(Cl)cc23)cc1 [Compound 36]  Viability (%) at 10 μM Fibroblast         92.1%
 6  COc1ccc(Nc2ccnc3cc(Cl)ccc23)cc1 [Compound 5]  Viability (%) at 10 μM Fibroblast         98.6%
 7  COCCOc1cc(Nc2ccnc3cc(Cl)ccc23)ccc1OC [Compound 35]  Viability (%) at 10 μM Fibroblast         99.5%
 8  COc1ccc(Nc2cc(N3CCN(C)CC3)nc3cc(Cl)ccc23)cc1 [Compound 31]  Viability (%) at 10 μM Fibroblast         29.6%
 9  COc1ccc(Nc2ccnc3ccc(Cl)cc23)c(OC)c1 [Compound 37]  Viability (%) at 10 μM Fibroblast         94.6%
10  COc1ccc(Nc2ccnc3cc(Cl)ccc23)c(OC)c1 [Compound 39]  Viability (%) at 10 μM Fibroblast        100.0%
11  Oc1ccc(Nc2ccnc3cc(Cl)ccc23)cc1 [Compound 7]  Viability (%) at 10 μM Fibroblast         97.7%
12  COc1ccc(Nc2cc(N3CCOCC3)nc3cc(Cl)ccc23)cc1 [Compound 30]  Viability (%) at 10 μM Fibroblast         96.4%
13  FC(F)Oc1ccc(Nc2ccnc3cc(Cl)ccc23)cc1 [Compound 34]  Viability (%) at 10 μM Fibroblast         98.3%
14  Oc1ccc(Nc2ccnc3cc(Cl)ccc23)cc1Cl [Compound 8]  Viability (%) at 10 μM Fibroblast         98.6%
15  COc1ccc(Nc2ccnc3cc(Cl)ccc23)cc1OC [Compound 38]  Viability (%) at 10 μM Fibroblast         93.3%
16  COc1ccc(Nc2cc(OC)nc3cc(Cl)ccc23)cc1 [Compound 27]  Viability (%) at 10 μM Fibroblast         93.9%

---

Tested on: A375 cells
Assay: A375 cell proliferation assay (trypan blue exclusion)
Type: cell-based
Conditions: Homo sapiens, A-375; A375, 1 μM, 48 h, treated/untreated cell number; read-out: Proliferation (%) At 1 μM - 48 H
Procedure: Cells were counted using a Malassez chamber. The average and standard deviation were calculated from triplicate experiments. Antiproliferative effects were evaluated by trypan blue exclusion assay. Briefly, cells were seeded into 12-well plate and grown in media supplemented with indicated compound at 1 or 10 μM for 48 h or 96 h. […] Dead and living cells were counted and proliferation was calculated as follow: Proliferation (%)=[(treated cell number/untreated cells number)*100].
Measurement Kind: activity at 1 µM (%)

> print(dat)
                                    compound  measurement.kind  assay.result
 1  COc1cccc(Nc2ccc3c(Nc4cc(F)cc(F)c4)ccnc3c2)c1 [Compound 26]  activity at 1 µM          54.9
 2  COc1ccc(Nc2cc(N3CCOCC3)nc3cc(Cl)ccc23)cc1 [Compound 30]  activity at 1 µM            88
 3  COc1ccc(Nc2cc(OCCN3CCOCC3)nc3cc(Cl)ccc23)cc1OC [Compound 32]  activity at 1 µM            96
 4  Oc1ccc(Nc2ccnc3cc(Cl)ccc23)cc1 [Compound 7]  activity at 1 µM          84.6
 5  COc1ccc(Nc2cc(N3CCN(C)CC3)nc3cc(Cl)ccc23)cc1OC [Compound 29]  activity at 1 µM          89.6
 6  Oc1ccc(Nc2ccnc3cc(Cl)ccc23)cc1Cl [Compound 8]  activity at 1 µM          81.3
 7  COc1ccc(Nc2cc(OC)nc3cc(Cl)ccc23)cc1 [Compound 27]  activity at 1 µM          98.7
 8  COc1cc(Nc2ccc(OC)c(OC)c2)c2ccc(Cl)cc2n1 [Compound 33]  activity at 1 µM           106
 9  FC(F)(F)Oc1ccc(Nc2ccnc3ccc(Cl)cc23)cc1 [Compound 36]  activity at 1 µM           105
10  COc1ccc(Nc2ccnc3ccc(Cl)cc23)c(OC)c1 [Compound 37]  activity at 1 µM            84
11  COc1ccc(Nc2cc(N3CCOCC3)nc3cc(Cl)ccc23)cc1OC [Compound 28]  activity at 1 µM          98.4
12  COc1ccc(Nc2ccnc3cc(Cl)ccc23)cc1 [Compound 5]  activity at 1 µM            91
13  COCCOc1cc(Nc2ccnc3cc(Cl)ccc23)ccc1OC [Compound 35]  activity at 1 µM           104
14  FC(F)Oc1ccc(Nc2ccnc3cc(Cl)ccc23)cc1 [Compound 34]  activity at 1 µM            96
15  COc1ccc(Nc2cc(N3CCN(C)CC3)nc3cc(Cl)ccc23)cc1 [Compound 31]  activity at 1 µM           106
16  COc1ccc(Nc2ccnc3cc(Cl)ccc23)c(OC)c1 [Compound 39]  activity at 1 µM          88.3
17  Oc1ccc(Nc2ccc3c(Nc4cc(F)cc(F)c4)ccnc3c2)cc1Cl [Compound 19]  activity at 1 µM          74.7
18  COc1ccc(Nc2ccnc3cc(Cl)ccc23)cc1OC [Compound 38]  activity at 1 µM          90.8
